tested on: human erythrocytes; assay: Hemolysis assay; type: cell-based; conditions: Table 6
Square brackets hold non-standard residues; d marks the D form. Peptide text beside a SMILES is read from it. Nrpe = C[C@@H](NCC(=O)O)c1ccccc1; Nspe = C[C@H](NCC(=O)O)c1ccccc1; Nlys = NCCCCNCC(=O)O
HD10 reference
Field: numeric (µM). Do not append units.

Completed entries (count: 2):
molecule	endpoint name	unit tag	endpoint result
C[C@H](c1ccccc1)N(CC(N)=O)C(=O)CN(C(=O)CN(CCCCN)C(=O)CN(C(=O)CN(C(=O)CN(CCCCN)C(=O)CN(C(=O)CN(C(=O)CN(CCCCN)C(=O)CN(C(=O)CN(C(=O)CNCCCCN)[C@@H](C)c1ccccc1)[C@H](C)c1ccccc1)[C@@H](C)c1ccccc1)[C@H](C)c1ccccc1)[C@@H](C)c1ccccc1)[C@H](C)c1ccccc1)[C@@H](C)c1ccccc1	HD10	µM	16
C[C@@H](c1ccccc1)N(CC(N)=O)C(=O)CN(C(=O)CN(CCCCN)C(=O)CN(C(=O)CN(C(=O)CN(CCCCN)C(=O)CN(C(=O)CN(C(=O)CN(CCCCN)C(=O)CN(C(=O)CN(C(=O)CNCCCCN)[C@@H](C)c1ccccc1)[C@@H](C)c1ccccc1)[C@@H](C)c1ccccc1)[C@@H](C)c1ccccc1)[C@@H](C)c1ccccc1)[C@@H](C)c1ccccc1)[C@@H](C)c1ccccc1 [compound 1, H-(NLys-Nspe-Nspe)4-NH2] (H-[Nlys][Nspe][Nspe][Nlys][Nspe][Nspe][Nlys][Nspe][Nspe][Nlys][Nspe][Nspe]-NH2)	HD10	µM	21

--- query ---
**Query** For C[C@H](c1ccccc1)N(CC(=O)N(CC(N)=O)[C@@H](C)c1ccccc1)C(=O)CN(CCCCN)C(=O)CN(C(=O)CN(C(=O)CN(CCCCN)C(=O)CN(C(=O)CN(C(=O)CN(CCCCN)C(=O)CN(C(=O)CN(C(=O)CNCCCCN)[C@H](C)c1ccccc1)[C@@H](C)c1ccccc1)[C@H](C)c1ccccc1)[C@@H](C)c1ccccc1)[C@H](C)c1ccccc1)[C@@H](C)c1ccccc1 [1-Nrpe2,5,8,11, H-(Nlys-Nrpe-Nspe)4-NH2] (H-[Nlys][Nrpe][Nspe][Nlys][Nrpe][Nspe][Nlys][Nrpe][Nspe][Nlys][Nrpe][Nspe]-NH2) , what is its reported HD10?
**Result** 22

###

test system: human erythrocytes; assay: Hemolysis assay; format: cell-based; details: red cells of human, 1 h
Numbered stars: 1 amine (or outer) side, 2 acyl side, 3 side chain; on linkers, the order of the positions; unused ones are H or OH. Square brackets hold non-standard residues; d marks the D form. Peptide text beside a SMILES is read from it. X3 = C[C@@H](c1ccc2ccccc2c1)N(CC(=O)[*:2])[*:1]; N(1S-Me-propyl)Gly = CC[C@H](C)NCC(=O)O; Nspe = C[C@H](NCC(=O)O)c1ccccc1; Nlys = NCCCCNCC(=O)O
endpoint name: HD10 (10% hemolytic dose)

Completed entries (count: 3):
compound	HD10 (10% hemolytic dose)
CC[C@H](C)N(CC(=O)N(CC(N)=O)[C@@H](C)c1ccc2ccccc2c1)C(=O)CN(CCCCN)C(=O)CN(C(=O)CN(C(=O)CN(CCCCN)C(=O)CN(C(=O)CN(C(=O)CN(CCCCN)C(=O)CN(C(=O)CN(C(=O)CNCCCCN)[C@@H](C)CC)[C@@H](C)c1ccccc1)[C@@H](C)CC)[C@@H](C)c1ccc2ccccc2c1)[C@@H](C)CC)[C@@H](C)c1ccccc1 [2-Nsna6,12] (H-[Nlys][N(1S-Me-propyl)Gly][Nspe][Nlys][N(1S-Me-propyl)Gly][X3][Nlys][N(1S-Me-propyl)Gly][Nspe][Nlys][N(1S-Me-propyl)Gly][X3]-NH2)	55 µM
C[C@@H](c1ccccc1)N(CC(N)=O)C(=O)CN(C(=O)CN(CCCCN)C(=O)CN(C(=O)CN(C(=O)CN(CCCCN)C(=O)[C@@H]1CCCN1C(=O)CN(C(=O)CN(CCCCN)C(=O)CN(C(=O)CN(C(=O)CNCCCCN)[C@@H](C)c1ccccc1)[C@@H](C)c1ccccc1)[C@@H](C)c1ccccc1)[C@@H](C)c1ccccc1)[C@@H](C)c1ccccc1)[C@@H](C)c1ccccc1 [1-Pro6] (H-[Nlys][Nspe][Nspe][Nlys][Nspe]P[Nlys][Nspe][Nspe][Nlys][Nspe][Nspe]-NH2)	63 µM
C[C@@H](c1ccccc1)N(CC(N)=O)C(=O)CN(C(=O)CN(CCC(=O)O)C(=O)CN(C(=O)CN(C(=O)CN(CCCCN)C(=O)CN(C(=O)CN(C(=O)CN(CCC(=O)O)C(=O)CN(C(=O)CN(C(=O)CNCCCCN)[C@@H](C)c1ccccc1)[C@@H](C)c1ccccc1)[C@@H](C)c1ccccc1)[C@@H](C)c1ccccc1)[C@@H](C)c1ccccc1)[C@@H](C)c1ccccc1)[C@@H](C)c1ccccc1	19 µM

--- query ---
**Query** Param readout = HD10 (10% hemolytic dose); param system = human erythrocytes; param query = CC[C@H](C)N(CC(=O)N(CC(=O)N(CC(=O)N(CCCCN)CC(N)=O)[C@@H](C)c1ccccc1)[C@@H](C)CC)C(=O)CN(CCCCN)C(=O)CN(C(=O)CN(CCCCN)C(=O)CN(C(=O)CN(C(=O)CN(C(=O)CN(C(=O)CNCCCCN)[C@@H](C)CC)[C@@H](C)c1ccccc1)[C@@H](C)CC)[C@@H](C)c1ccccc1)[C@@H](C)c1ccccc1 [2scrambled] (H-[Nlys][N(1S-Me-propyl)Gly][Nspe][N(1S-Me-propyl)Gly][Nspe][Nlys][Nspe][Nlys][N(1S-Me-propyl)Gly][N(1S-Me-propyl)Gly][Nspe][Nlys]-NH2) ; response: value
**Result** >120/>120 μM

###

System: Serratia marcescens ATCC 13880
Format: cell-based
Conditions: ATCC 13880
Protocol: Antibacterial assays. MICs were determined according to CLSI M7-A6 protocols in a 96-well microtiter plate. […] Broad-spectrum antibacterial assays. MICs of compounds were determined by microdilution procedure in Mueller-Hinton broth (MHB) in accordance with CLSI M7-A6 protocols in a manner similar to that described for the screen antibacterial assays. Inoculated microtiter plates were incubated at 35° C. for 24 hours prior to the result being recorded. […]
Square brackets hold non-standard residues; d marks the D form. Peptide text beside a SMILES is read from it. Nspe = C[C@H](NCC(=O)O)c1ccccc1; Nphe = O=C(O)CNCc1ccccc1; Nlys = NCCCCNCC(=O)O
MIC S. marcescens ATCC 13880 reference

compound	MIC S. marcescens ATCC 13880
NCCCCNCC(=O)N(CC(=O)N(CC(=O)N(CCCCN)CC(=O)N(CC(=O)N(CC(=O)N(CCCCN)CC(=O)N(CC(=O)N(CC(=O)N(CCCCN)CC(=O)N(CC(=O)N(CC(N)=O)Cc1ccccc1)Cc1ccccc1)Cc1ccccc1)Cc1ccccc1)Cc1ccccc1)Cc1ccccc1)Cc1ccccc1)Cc1ccccc1 [1achiral, H-(Nlys-Npm-Npm)4-NH2] (H-[Nlys][Nphe][Nphe][Nlys][Nphe][Nphe][Nlys][Nphe][Nphe][Nlys][Nphe][Nphe]-NH2)	>128 µg/mL

**Query** For C[C@@H](c1ccccc1)N(CC(N)=O)C(=O)CN(Cc1ccccc1)C(=O)CN(CCCCN)C(=O)CN(C(=O)CN(Cc1ccccc1)C(=O)CN(CCCCN)C(=O)CN(C(=O)CN(Cc1ccccc1)C(=O)CN(CCCCN)C(=O)CN(C(=O)CN(Cc1ccccc1)C(=O)CNCCCCN)[C@@H](C)c1ccccc1)[C@@H](C)c1ccccc1)[C@@H](C)c1ccccc1 [1-Npm2,5,8,11, H-(Nlys-Npm-Nspe)4-NH2] (H-[Nlys][Nphe][Nspe][Nlys][Nphe][Nspe][Nlys][Nphe][Nspe][Nlys][Nphe][Nspe]-NH2) , what is its reported MIC S. marcescens ATCC 13880?
**Result** >128 µg/mL

###

tested on: Proteus vulgaris ATCC 49132; type: cell-based; conditions: ATCC 49132
Square brackets hold non-standard residues; d marks the D form. Peptide text beside a SMILES is read from it. Nspe = C[C@H](NCC(=O)O)c1ccccc1; Nphe = O=C(O)CNCc1ccccc1; Nlys = NCCCCNCC(=O)O
MIC Proteus vulgaris ATCC 49132 reference
Field: numeric (µM). Do not append units.

compound	unit tag	endpoint result
C[C@@H](c1ccccc1)N(CC(N)=O)C(=O)CN(C(=O)CN(CCCCN)C(=O)[C@@H]1CCCN1C(=O)CN(C(=O)CN(CCCCN)C(=O)CN(C(=O)CN(C(=O)CN(CCCCN)C(=O)CN(C(=O)CN(C(=O)CNCCCCN)[C@@H](C)c1ccccc1)[C@@H](C)c1ccccc1)[C@@H](C)c1ccccc1)[C@@H](C)c1ccccc1)[C@@H](C)c1ccccc1)[C@@H](C)c1ccccc1 [1-Pro9] (H-[Nlys][Nspe][Nspe][Nlys][Nspe][Nspe][Nlys][Nspe]P[Nlys][Nspe][Nspe]-NH2)	µM	36.5

**Query** For NCCCCNCC(=O)N(CC(=O)N(CC(=O)N(CCCCN)CC(=O)N(CC(=O)N(CC(=O)N(CCCCN)CC(=O)N(CC(=O)N(CC(=O)N(CCCCN)CC(=O)N(CC(=O)N(CC(N)=O)Cc1ccccc1)Cc1ccccc1)Cc1ccccc1)Cc1ccccc1)Cc1ccccc1)Cc1ccccc1)Cc1ccccc1)Cc1ccccc1 [1achiral, H-(Nlys-Npm-Npm)4-NH2] (H-[Nlys][Nphe][Nphe][Nlys][Nphe][Nphe][Nlys][Nphe][Nphe][Nlys][Nphe][Nphe]-NH2) , what is its reported MIC Proteus vulgaris ATCC 49132?
**Result** 18.7

Sourced from patent US20100036088A1
